Target protein (sequence): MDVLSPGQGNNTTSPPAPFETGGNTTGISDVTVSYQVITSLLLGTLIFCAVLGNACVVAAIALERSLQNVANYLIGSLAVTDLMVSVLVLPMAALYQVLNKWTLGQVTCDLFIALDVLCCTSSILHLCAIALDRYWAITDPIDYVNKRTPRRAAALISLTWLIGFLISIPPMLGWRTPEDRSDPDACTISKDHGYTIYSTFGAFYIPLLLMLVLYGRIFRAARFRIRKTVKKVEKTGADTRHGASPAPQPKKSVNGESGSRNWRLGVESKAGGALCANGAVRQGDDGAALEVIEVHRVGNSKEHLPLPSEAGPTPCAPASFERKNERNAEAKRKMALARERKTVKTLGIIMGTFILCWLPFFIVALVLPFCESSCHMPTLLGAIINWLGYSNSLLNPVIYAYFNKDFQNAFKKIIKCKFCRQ
readout-name: Ki (nM)
Entry rule: numbers only, all in nM.

For reference, reported Ki for "Cc1cccc(N2CCN(CCCCNS(=O)(=O)c3cc4ccccc4cn3)CC2)c1C.Cl" stands at 73
